Target: Short transient receptor potential channel 4 (Mus musculus) (UniProt Q9QUQ5)
Sequence (Q9QUQ5 whole entry, looked up): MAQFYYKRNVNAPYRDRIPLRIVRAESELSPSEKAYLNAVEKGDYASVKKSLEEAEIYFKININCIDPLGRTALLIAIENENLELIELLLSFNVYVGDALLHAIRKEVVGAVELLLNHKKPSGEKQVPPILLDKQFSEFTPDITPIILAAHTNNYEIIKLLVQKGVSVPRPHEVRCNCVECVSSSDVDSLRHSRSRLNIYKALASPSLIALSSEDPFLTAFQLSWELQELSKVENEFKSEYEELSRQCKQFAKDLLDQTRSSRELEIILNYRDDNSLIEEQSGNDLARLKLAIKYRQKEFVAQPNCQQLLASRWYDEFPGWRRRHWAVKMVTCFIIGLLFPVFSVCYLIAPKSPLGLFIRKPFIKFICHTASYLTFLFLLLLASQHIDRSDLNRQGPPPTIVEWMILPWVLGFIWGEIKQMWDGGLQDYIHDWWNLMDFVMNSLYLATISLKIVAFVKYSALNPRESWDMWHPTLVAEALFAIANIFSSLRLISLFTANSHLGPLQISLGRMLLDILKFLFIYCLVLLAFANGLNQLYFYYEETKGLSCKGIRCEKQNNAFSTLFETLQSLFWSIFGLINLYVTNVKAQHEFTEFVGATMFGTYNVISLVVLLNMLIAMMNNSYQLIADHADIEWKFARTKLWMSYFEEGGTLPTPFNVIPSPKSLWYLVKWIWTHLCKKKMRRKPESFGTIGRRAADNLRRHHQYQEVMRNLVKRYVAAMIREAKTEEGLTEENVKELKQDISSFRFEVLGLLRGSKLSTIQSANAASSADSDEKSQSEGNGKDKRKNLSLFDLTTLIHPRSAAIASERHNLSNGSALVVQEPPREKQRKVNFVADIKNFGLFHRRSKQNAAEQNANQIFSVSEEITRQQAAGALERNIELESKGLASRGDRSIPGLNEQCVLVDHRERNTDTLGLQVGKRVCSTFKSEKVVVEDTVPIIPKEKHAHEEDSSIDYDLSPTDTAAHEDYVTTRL
Experiment: blockers of DAMGO-evoked TRPC4 calcium flux – cell-based, Fluo4, HEK293 TRPC4beta/mu-opioid, confirmation (AID 2636)
Conditions: at 10 µM
Activity calls are given as the source filed them.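 The calls were made as follows: active = calcium signal cut by more than 3 SD below the full-agonist control yet still positive, in both repeats and the earlier primary screen; inactive = the rest.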
Your response should consist of one outcome taken from active, inactive

Worked cases, answers included:
CC#CC[N+](C)(C)CCCCCCCCCCCC = active
Cc1ccc(Oc2ccccc2/C=N/O)cc1 = active
COc1ccc(Cl)c2sc(N(CCN(C)C)C(=O)c3ccc4c(c3)OCCO4)nc12 = inactive
CC(COc1ccccc1)N1CCC(CO)(CCc2ccccc2)CC1 (configuration not stated) = inactive
CCc1ccc(OCc2ccc(C(=O)NCc3ccccn3)o2)cc1 = inactive

In: // param item: COc1ncnc2sc3c(c12)CCCC3 ; yields the recorded call
Out: active

In: Could you please tell me the result logged for C=CCOc1ccc(C2CC(C)=NN2c2ccccc2)cc1 (configuration not stated) in this assay?
Out: active

In: // param item: CCCN1CN(Cc2ccco2)c2nc3ccccc3n2C1 ; yields the recorded call
Out: active

###

Biological target: Short transient receptor potential channel 4 (Mus musculus) (UniProt Q9QUQ5)
Assay: calcium flux activators in TRPC4/5HT1a cells, counter-screen for TRPC4 activator project, cell-based, second counter screen, HEK293 TRPC4/5HT1a, Fluo-4 (AID 434977)
Settings: Fluo-4 calcium flux, at 10 µM
Active and inactive are the calls of the source.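 How the source made its calls: active means calcium signal rise above buffer-control mean plus 5 SD in both duplicates, and also a hit in the primary screen; inactive means the rest.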
Outcomes you can answer with include only these: True = active, False = inactive

Reference set, count: 3
O=C(NCc1ccccc1)C1=C[C@@H](C2CCCCC2)C[C@@H](OCc2ccc(CO)cc2)O1 = True
O=C(C[n+]1cc(-c2ccc(Cl)c(Cl)c2)n2c1CCC2)N1c2ccccc2Sc2ccccc21 = False
Clc1cccc(OCCN2CCNCC2)c1 = True

In: For this compound, state the assay outcome: Cc1ccc2cc(CN(CCN3CCOCC3)C(=O)NCc3ccccc3)c(=O)[nH]c2c1C
Out: False

In: // return assay outcome for Cn1c(C(=O)N[C@@H](C(=O)O)c2ccccc2)cc2cc(Cl)ccc21
Out: False

###

Molecular target: Short transient receptor potential channel 6 (Mus musculus) (UniProt Q61143)
Sequence (Q61143 whole entry, looked up): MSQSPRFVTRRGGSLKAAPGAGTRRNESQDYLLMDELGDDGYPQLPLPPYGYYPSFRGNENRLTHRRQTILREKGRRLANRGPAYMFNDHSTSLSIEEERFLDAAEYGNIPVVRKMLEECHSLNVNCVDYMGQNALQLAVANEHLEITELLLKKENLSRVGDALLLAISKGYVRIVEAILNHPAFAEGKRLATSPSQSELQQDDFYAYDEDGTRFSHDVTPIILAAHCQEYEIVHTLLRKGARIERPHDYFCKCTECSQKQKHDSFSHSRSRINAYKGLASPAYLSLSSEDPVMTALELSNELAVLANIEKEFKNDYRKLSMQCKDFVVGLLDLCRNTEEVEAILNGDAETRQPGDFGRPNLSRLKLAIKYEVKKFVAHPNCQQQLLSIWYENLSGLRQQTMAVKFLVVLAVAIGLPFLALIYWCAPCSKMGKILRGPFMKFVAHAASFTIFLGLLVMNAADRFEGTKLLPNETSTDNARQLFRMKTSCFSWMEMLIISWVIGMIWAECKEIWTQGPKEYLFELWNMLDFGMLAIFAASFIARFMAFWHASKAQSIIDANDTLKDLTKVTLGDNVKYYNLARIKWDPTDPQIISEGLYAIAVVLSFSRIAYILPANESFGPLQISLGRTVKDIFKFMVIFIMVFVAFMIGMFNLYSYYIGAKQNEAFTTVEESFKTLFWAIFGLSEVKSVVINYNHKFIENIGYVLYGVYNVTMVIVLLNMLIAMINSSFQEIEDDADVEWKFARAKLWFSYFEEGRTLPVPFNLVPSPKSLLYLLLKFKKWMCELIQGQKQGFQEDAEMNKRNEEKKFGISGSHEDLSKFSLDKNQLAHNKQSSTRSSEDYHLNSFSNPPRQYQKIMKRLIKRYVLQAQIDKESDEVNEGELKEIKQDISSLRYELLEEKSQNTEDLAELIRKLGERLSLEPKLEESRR
Assay: TRPC6 opening by TRPC4 activator hits – cell-based, HEK293, membrane potential dye, duplicate, selectivity assay for TRPC4 activator project, confirmation (AID 434950)
Settings: HEK293 TRPC6, membrane potential fluorescence, at 10 µM; activation
Active and inactive are the calls of the source.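 Rule for the calls: active = membrane potential signal rise above negative control mean plus 3 SD in both duplicates, also active in the earlier TRPC4 screen; inactive = the rest.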
Outcome measure: outcome

Recorded outcome, per entry:
Cn1c(=O)c2c(nc(CN3CCc4ccccc4C3)n2Cc2ccccc2)n(C)c1=O = inactive
O=C(O)c1ccc(NC(=O)c2cn(-c3ccccc3)nc2-c2ccc(Br)cc2)cc1 = inactive
Cc1cccc(Cn2c(=O)c3c(nc4n3CCCN4Cc3ccccc3)n(C)c2=O)c1 = inactive
Cc1ccc(NC(=O)C2CCC(CNC(=O)[C@@H]3Cc4ccccc4CN3)CC2)cc1 (stereo not given in full) = inactive
Cc1ccc(Cl)c(OCCN2CCCC(C)C2)c1 (stereo not given) = inactive

# outcome (molecule: COCCSc1ccccc1C(=O)N1CCC(Cc2ccccc2)CC1 ) is inactive

Please fill in: outcome reported for COc1ccccc1N1CCN(CCCNC(=O)Nc2ccccc2)CC1 = inactive

Measured outcome, Cc1ccc(C(=O)NNC(=S)NC(=O)COc2ccccc2)cc1 : inactive

Recorded result, Cc1ccc(OCCn2c(C)nc3ccccc32)cc1 , outcome: inactive

Entry Cc1ccc(NS(=O)(=O)c2cc(N)ccc2Cl)c(C)c1 ; outcome = inactive

The reported value for CN(Cc1ccccc1)C(=O)CSc1nnc(-c2ccco2)n1-c1ccccc1 in terms of outcome is inactive

GET /value?item= COC(=O)c1ccc(CSc2nc3ccccc3c(=O)n2CC(C)C)o1 &field=outcome returns inactive

The molecule listed as CCOc1ccc(N=CNc2ccc(OCC)cc2)cc1 has a reported outcome of inactive

# outcome of Cc1ccccc1C(=O)NNC(=S)NC(=O)c1cccs1 = inactive

molecule COc1ccc(C(CNC(=O)c2oc3ccc(Cl)cc3c2C)N2CCCCC2)cc1 (stereo not given) , outcome observed: inactive

Consider CC(C)Cc1nc(N2CCN(C(=O)C(C)C)CC2)c(C#N)c2c1CCC2 . Its measured outcome is inactive

Cc1cc(NC(=O)C(C)SCC(=O)N(Cc2ccccc2)c2ccccc2)no1 (stereo not given) has a reported outcome of inactive

Input c1ccc2c(N3CCCCC3)nc(N3CCOCC3)nc2c1 . Output outcome: inactive

###

Target: Short transient receptor potential channel 4 (Mus musculus) (UniProt Q9QUQ5)
Assay: blockers of DAMGO-evoked TRPC4 calcium flux – cell-based, second round, Fluo4, HEK293 TRPC4beta/mu-opioid, 1 µM, confirmation (AID 2637)
Details: at 1 µM; active compounds read high
Activity calls are given as the source filed them.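 Rule for the calls: active = calcium signal ratio cut to more than 3 SD under the fully stimulated control mean yet still positive, in both repeats and the primary screen; inactive = the rest.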
Outcome measure: inhibition

C/C(=N\N1CCN(C)CC1)c1ccc(Cl)c(Cl)c1 = inactive
CN1CCN(Cc2cn[nH]c2-c2ccc(F)cc2F)[C@@H](c2ccccc2)C1 = inactive
O=C(COC(=O)c1ccccc1C(=O)N1CCN(c2ccccc2)CC1)Nc1ccc(F)cc1 = inactive
CC(C)(C)C(=O)/C=c1\s/c(=C\c2ccc(-c3ccc([N+](=O)[O-])cc3)o2)c(=O)n1CC(=O)NC(N)=O = inactive

Now look at this entry.
Form: compound = O=c1c(Cc2ccc(F)cc2)c(O)ccn1CCc1cnc[nH]1 ; inhibition = inactive

###

Biological target: Short transient receptor potential channel 4 (Mus musculus) (UniProt Q9QUQ5)
Experiment: calcium entry via TRPC4 opening agents – cell-based, HEK293 TRPC4/mu-opioid, Fluo-4 calcium, dose response (AID 434937);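 also: HEK293 cells coexpressing mouse TRPC4 with mu-opioid receptor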
Settings: HEK293 TRPC4 cells, Fluo-4 calcium fluorescence ratio; series mostly up to 20 µM
Entries with a potency or affinity are not part of this list. The source made the active and inactive calls.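 The calls were made as follows: active = primary screen activator hit with a dose response curve and TRPC4 channel activation at any tested dose; inactive = no activation, no dose response, or not a primary hit.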
Outcome measure: outcome

Examples with their reported outcome follow.
CC1=CC(=O)C(C(C)C)=C/C1=N/OS(=O)(=O)c1ccccc1 = inactive
CCN(C(=O)c1cnc(NC(C)C)cc1C(F)(F)F)c1ccc(Cl)cc1Cl = inactive
Fc1ccc(CN2CCC(Cc3ccccc3)CC2)cc1F = inactive
Cc1nc2ccccc2n1CCOc1ccc(F)cc1 = inactive
CCCCn1c(NCc2ccc(N(C)C)cc2)nc2ccccc21 = inactive
Cn1c2ccccc2c(=O)c2c(=O)n(-c3ccccc3)c(-c3ccc(C(C)(C)C)cc3)nc21 = inactive
CC(OCC(O)CN(C)CCOc1ccccc1)c1ccc(Cl)cc1 (stereo unspecified) = inactive
CCCCn1c(NCCO)nc2ccccc21 = inactive

// outcome lookup, molecule = Cc1nn(-c2cccc(Cl)c2)c2nc(C(F)(F)F)[nH]c(=O)c12 , result: inactive

Given item O=C1CC(NS(=O)(=O)c2cccs2)CN1c1ccccc1 (stereo unspecified) , the value recorded as its outcome is inactive

Input CC1CCCN(CCCN2C(=O)C3C(C(=O)Nc4ccc(Cl)cc4)C4C=CC3(O4)C2C(=O)NC2CCCCC2)C1 (stereo unspecified) . Output outcome: inactive

###

Biological target: Short transient receptor potential channel 4 (Mus musculus) (UniProt Q9QUQ5)
Test: blockers of DAMGO-evoked TRPC4 calcium flux – cell-based, Fluo4, HEK293 TRPC4beta/mu-opioid, confirmation (AID 2636)
Settings: at 10 µM
The source made the active and inactive calls.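 How the source made its calls: active means calcium signal cut by more than 3 SD below the full-agonist control yet still positive, in both repeats and the earlier primary screen; inactive means the rest.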
Respond with a class label; see 1.0 for active, 0.0 for inactive

Known results for compounds:
O=C(c1ccc([N+](=O)[O-])s1)N1CCCc2ccccc21 = 0.0
CCCCn1c(SCC(=O)OCC)nc2c(sc(=S)n2-c2ccccc2OC)c1=O = 1.0
O=C1/C(=C/c2ccccc2Cl)SC(=S)N1CCCC(=O)N(CCO)c1ccccc1 = 1.0

In: Name the outcome recorded for CCCN(CCC)CCNC(=O)CCC(=O)Nc1ccc2nc(N3CCOCC3)cc(C)c2c1 in the assay.
Out: 0.0

In: Per the assay record, what outcome was assigned to COc1ccc(-c2cc(C(=O)N3CC(C)CC(C)C3)c3ccccc3n2)cc1 (stereo not given) ?
Out: 0.0

In: Any idea what this test logged for O=C(COC(=O)c1cc2c(s1)CCCCC2)NC1CCS(=O)(=O)C1 (stereo not given) ?
Out: 0.0

In: In this assay, the call recorded for COc1ccc(C2CC2/C(=N/O)c2ccccc2)cc1 (stereo not given) was what?
Out: 1.0

In: Short answer needed: outcome of this test for C=C(c1ccc(O)cc1)c1ccc(O)cc1 ?
Out: 1.0

In: I would be grateful if you could indicate the recorded call for O=C(NCCN1CCOCC1)c1ccc2c(c1)N(Cc1ccc(F)cc1)C(=O)CS2 .
Out: 0.0

In: What is the recorded call for this compound in the test? O=C1CC(NS(=O)(=O)c2cccs2)CN1c1ccccc1 (stereo not given)
Out: 0.0

In: Please state the recorded outcome for this compound: Cn1c(/N=C/c2ccccc2[N+](=O)[O-])nc2ccccc21
Out: 0.0

In: Look up the recorded call for Cc1onc(-c2ccccc2Cl)c1C(=O)N1CCN(C/C=C/c2ccccc2)CC1 in this test.
Out: 0.0

In: Hi, do you know how Cc1n[nH]c(C)c1CCCCOc1ccccc1 came out in this test?
Out: 1.0

In: Returns: the outcome recorded for CCCCC[n+]1cccc2c3ccccc3ccc21 in this assay.
Out: 1.0

In: What call does the record list for CN1CCN(c2ccc(S(=O)(=O)N3CCCCC3)cc2NC(=O)c2ccc(F)cc2F)CC1 ?
Out: 0.0
